Test system: MDCK
Assay: Cytotoxicity against dog MDCK cells assessed as alteration of cell morphology up to 100 uM by microscopic analysis
Type: cell-based, Canis lupus familiaris
readout-type: Activity

>>> df
                                   compound  study_target  readout_type  experimental_value
0  CCOP(=O)(OCC)[C@@H]1C[C@H](C(=O)Nc2cccc(C)c2)ON1C (mixture of isomers)          MDCK      Activity           Non-toxic
1  CCOP(=O)(OCC)[C@H]1C[C@H](C(=O)Nc2cc(OC)cc(OC)c2)ON1C (mixture of isomers)          MDCK      Activity           Non-toxic
2  CCOP(=O)(OCC)[C@H]1C[C@H](C(=O)Nc2ccccc2[N+](=O)[O-])ON1C (mixture of isomers)          MDCK      Activity           Non-toxic
3  CCOP(=O)(OCC)[C@H]1C[C@H](C(=O)Nc2cc(OC)c(OC)c(OC)c2)ON1C (mixture of isomers)          MDCK      Activity           Non-toxic
4  CCOP(=O)(OCC)[C@@H]1C[C@H](C(=O)Nc2ccc(C(C)=O)cc2)ON1C (racemic)          MDCK      Activity           Non-toxic
5  CCOP(=O)(OCC)[C@@H]1C[C@H](C(=O)Nc2ccc(F)cc2)ON1C (mixture of isomers)          MDCK      Activity           Non-toxic
6  CCOP(=O)(OCC)[C@@H]1C[C@H](C(=O)Nc2ccc(Cl)cc2)ON1C (mixture of isomers)          MDCK      Activity           Non-toxic

Next compound, Activity to be filled in.
Could you tell me which Activity is on file for CCOP(=O)(OCC)[C@@H]1C[C@H](C(=O)Nc2ccccc2Cl)ON1C (mixture of isomers) ?
Non-toxic
